Entry source: patent US20170304388A1

Tested on: SAS
Assay: Cell viability analysis (WST-1), SAS
Format: cell-based
Conditions: 72 h, Table 4, repeated experiments, drug 10 μM, read-out: survival rate (viability) of cancer cells, SAS
Structures can show the parent of a compound that is named as a salt.
So I've got a bunch of molecules here, and I need their viability at 10 µM values.

Ask | Requested read-out viability at 10 µM, target or system SAS, entry CCC[C@H](N[C@@H](C)C(=O)N1[C@H](C(=O)O)C[C@@H]2CCCC[C@@H]21)C(=O)OCC [Perindopril Erbumine (Aceon), Perindopril Erbumine]
Reply | 52.5%

Ask | So what viability at 10 µM did CC(C)N(CCC(C(N)=O)(c1ccccc1)c1ccccn1)C(C)C (stereo not drawn) [Disopyramide Phosphate] get with SAS?
Reply | 96.9%

Ask | Tell me reported viability at 10 µM for COC(=O)C1=C(C)NC(C)=C(C(=O)OC2CCCN(Cc3ccccc3)C2)C1c1cccc([N+](=O)[O-])c1 (stereo not drawn) [Benidipine hydrochloride] , tested with SAS.
Reply | 64.5%
